# credit: ChEMBL document CHEMBL3259515

# System Tested: Polyunsaturated fatty acid 5-lipoxygenase (Homo sapiens, UniProt P09917)
# Sequence (P09917 whole entry): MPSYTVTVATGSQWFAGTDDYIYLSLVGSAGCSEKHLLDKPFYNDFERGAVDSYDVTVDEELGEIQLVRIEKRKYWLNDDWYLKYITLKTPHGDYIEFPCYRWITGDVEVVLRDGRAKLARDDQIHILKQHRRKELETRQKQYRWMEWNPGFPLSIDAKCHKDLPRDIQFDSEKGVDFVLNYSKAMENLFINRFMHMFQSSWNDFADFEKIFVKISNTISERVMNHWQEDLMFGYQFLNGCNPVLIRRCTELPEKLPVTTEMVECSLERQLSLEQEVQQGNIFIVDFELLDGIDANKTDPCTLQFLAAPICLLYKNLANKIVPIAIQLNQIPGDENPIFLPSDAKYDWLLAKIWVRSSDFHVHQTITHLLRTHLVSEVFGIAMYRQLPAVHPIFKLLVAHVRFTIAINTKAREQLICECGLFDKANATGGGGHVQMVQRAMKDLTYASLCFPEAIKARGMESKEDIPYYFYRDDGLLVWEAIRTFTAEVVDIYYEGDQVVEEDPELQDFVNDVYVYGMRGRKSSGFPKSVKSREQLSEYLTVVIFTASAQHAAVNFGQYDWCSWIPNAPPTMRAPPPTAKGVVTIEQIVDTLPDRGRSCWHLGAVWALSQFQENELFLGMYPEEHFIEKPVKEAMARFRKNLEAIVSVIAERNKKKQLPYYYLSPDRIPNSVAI
# Experiment Summary: Inhibition of 5-LO in human polymorphonuclear leukocytes assessed as inhibition of LTB4 production from arachidonic acid preincubated for 15 mins by HPLC analysis
# Format: cell-based
Recorded Endpoint: IC50 (nM)
Reply with just the number (in nM).

[[record]]
smiles_string = "CCOC(=O)c1c(CSc2ccc(F)cc2F)n(C)c2ccc(O)cc12"
recorded_endpoint = "IC50"
readout_unit = "nM"
recorded_result = 6800

[[record]]
smiles_string = "CCOC(=O)c1c(CSc2ccc(OC(F)(F)F)cc2)n(C)c2ccc(O)cc12"
recorded_endpoint = "IC50"
readout_unit = "nM"
recorded_result = 2100

[[record]]
smiles_string = "CCOC(=O)c1c(CSc2c(C)cc(C)cc2C)n(C)c2ccc(O)cc12"
recorded_endpoint = "IC50"
readout_unit = "nM"
recorded_result = 230

[[record]]
smiles_string = "CCOC(=O)c1c(CSc2ccc(F)cc2)n(C)c2ccc(O)cc12"
recorded_endpoint = "IC50"
readout_unit = "nM"
recorded_result = 9100

[[record]]
smiles_string = "CCOC(=O)c1c(CSc2ccc(OC)cc2)n(C)c2ccc(O)cc12"
recorded_endpoint = "IC50"
readout_unit = "nM"
recorded_result = 3100

[[record]]
smiles_string = "CCOC(=O)c1c(CSc2c(C)cccc2C)n(C)c2ccc(O)cc12"
recorded_endpoint = "IC50"
readout_unit = "nM"
recorded_result = 1200

[[record]]
smiles_string = "CCOC(=O)c1c(CSc2c(Cl)cccc2Cl)n(C)c2ccc(O)cc12"
recorded_endpoint = "IC50"
readout_unit = "nM"
recorded_result = 900

[[record]]
smiles_string = "CCOC(=O)c1c(CSc2ccccc2OC)n(C)c2ccc(O)cc12"
recorded_endpoint = "IC50"
readout_unit = "nM"
recorded_result = 5100

[[record]]
smiles_string = "CCOC(=O)c1c(CSc2ccccc2C(F)(F)F)n(C)c2ccc(O)cc12"
recorded_endpoint = "IC50"
readout_unit = "nM"
recorded_result = 1200

[[record]]
smiles_string = "CCOC(=O)c1c(CSc2cc(C)cc(C)c2)n(C)c2ccc(O)cc12"
recorded_endpoint = "IC50"
readout_unit = "nM"
recorded_result = 2700


Attention now shifts to the item below.
Query: Reported IC50 for `CCOC(=O)c1c(CSc2ccccc2)n(C)c2ccc(O)cc12` : what is it?
Reply: 2400

----------
# System Tested: Polyunsaturated fatty acid 5-lipoxygenase (Homo sapiens, UniProt P09917)
# Experiment Summary: Inhibition of human recombinant 5-LO expressed in Escherichia coli BL21 using arachidonic acid as substrate preincubated for 5 to 10 mins by HPLC analysis
IC50 values by entry
# number only, unit µM dropped from output

[[record]]
smiles_string = "CCOC(=O)c1c(CSc2cc(C)cc(C)c2)n(C)c2ccc(O)cc12"
recorded_endpoint = "IC50"
readout_unit = "µM"
recorded_result = 1.8

[[record]]
smiles_string = "CCOC(=O)c1c(CSc2cccc(Cl)c2)n(C)c2ccc(O)cc12"
recorded_endpoint = "IC50"
readout_unit = "µM"
recorded_result = 3.8

[[record]]
smiles_string = "CCOC(=O)c1c(CSc2ccc(F)cc2)n(C)c2ccc(O)cc12"
recorded_endpoint = "IC50"
readout_unit = "µM"
recorded_result = 5

[[record]]
smiles_string = "CCOC(=O)c1c(CSc2ccccc2C(F)(F)F)n(C)c2ccc(O)cc12"
recorded_endpoint = "IC50"
readout_unit = "µM"
recorded_result = 0.8

[[record]]
smiles_string = "CCOC(=O)c1c(CSc2c(C)cc(C)cc2C)n(C)c2ccc(O)cc12"
recorded_endpoint = "IC50"
readout_unit = "µM"
recorded_result = 0.7


Query: Form: Entry = `CCOC(=O)c1c(CSc2ccc(F)cc2F)n(C)c2ccc(O)cc12` | System = Polyunsaturated fatty acid 5-lipoxygenase (Homo sapiens, UniProt P09917) | IC50 = ____
Reply: 3.2

Query: For the record `CCOC(=O)c1c(CSc2ccccc2OC)n(C)c2ccc(O)cc12` , what value of IC50 is listed for Polyunsaturated fatty acid 5-lipoxygenase (Homo sapiens, UniProt P09917)?
Reply: 2.9

Query: # value lookup — system Polyunsaturated fatty acid 5-lipoxygenase (Homo sapiens, UniProt P09917), readout IC50, item `CCOC(=O)c1c(CSc2c(Cl)cccc2Cl)n(C)c2ccc(O)cc12`
Reply: 0.8

Query: State its IC50 on Polyunsaturated fatty acid 5-lipoxygenase (Homo sapiens, UniProt P09917): `CCOC(=O)c1c(CSc2ccccc2)n(C)c2ccc(O)cc12`
Reply: 5.7

Query: Identify the measured IC50 of `CCOC(=O)c1c(CSc2ccc(OC)cc2)n(C)c2ccc(O)cc12` for Polyunsaturated fatty acid 5-lipoxygenase (Homo sapiens, UniProt P09917).
Reply: 2.3
